# maps each entry to its kon
Molecular target: T1, Human CD3eg linker (human)
T1 construct: Single chain: CD3 epsilon and gamma subunits joined by a 29-mer linker, Flag-tag at the C-terminus; also called recombinant human CD3
T1 chain: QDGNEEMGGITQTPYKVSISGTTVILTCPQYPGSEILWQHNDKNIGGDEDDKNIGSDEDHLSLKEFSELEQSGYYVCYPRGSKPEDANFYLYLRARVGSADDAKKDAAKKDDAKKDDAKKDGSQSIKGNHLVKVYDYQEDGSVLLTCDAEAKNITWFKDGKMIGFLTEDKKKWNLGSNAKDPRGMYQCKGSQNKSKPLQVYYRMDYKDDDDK
Test: SPR Biacore T200, 25 C, Ab captured on anti-human Fc, antigen as analyte;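 also: Anti-Fc amine-coupled to a CM4 chip, recombinant human CD3 flowed over in 20 mM ACES buffer pH 7.4 with 150 mM NaCl and 0.05% Tween 20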
Give the value in M⁻¹ s⁻¹ but do not write M⁻¹ s⁻¹ after it.

Worked cases, kon given:
BINDER	kon (M⁻¹ s⁻¹)
H2591L0581 (antibody, V domains shown, Dual-Ig, IgG; also called H2591L581; dBBDu183H2591/dBBDu072L0581) VH: QVQLVESGGGLVQPGRSLRLSCAASGFKFSNVWFHWVRQAPGKGLEWVAQIKDYYNAYAGYYHPSVKGRFTISRDDSKNSIYLQMNSLKTEDTAVYYCHYVHYAAASTLLPAEGVDAWGQGTTVTVSS VL: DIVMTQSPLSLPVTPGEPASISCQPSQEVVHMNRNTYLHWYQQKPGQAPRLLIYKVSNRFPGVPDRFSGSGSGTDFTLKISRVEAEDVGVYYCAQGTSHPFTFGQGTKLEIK	102000
H1651L0581 (antibody, V domains shown, Dual-Ig, IgG; also called dBBDu183H1651/dBBDu072L0581) VH: QVQLVESGGGLVQPGRSLRLSCAASGFVFSNVWFHWVRQAPGKGLEWVAQIKDKYNAYADYYAPSVEGRFTISRDDSKNSIYLQMNSLKTEDTAVYYCHYVHYASASTLLPAEGVDAWGQGTTVTVSS VL: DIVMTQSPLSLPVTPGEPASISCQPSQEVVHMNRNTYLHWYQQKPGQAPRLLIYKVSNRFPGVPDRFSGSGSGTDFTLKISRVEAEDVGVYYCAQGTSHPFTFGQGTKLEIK	71800

For the next question, use this binder.
Challenge: Return reported kon; argument: H0868L0581 (antibody, V domains shown, Dual-Ig, IgG; also called H868L581; dBBDu183H0868/dBBDu072L0581) VH: QVQLVESGGGLVQPGRSLRLSCAASGFKFSNVWMHWVRQAPGKGLEWVAQIKDKYNAYAAYYAPSVKGRFTISRDDSKNSIYLQMNSLKTEDTAVYYCHYVHYASASTLLPAFGVDAWGQGTTVTVSS VL: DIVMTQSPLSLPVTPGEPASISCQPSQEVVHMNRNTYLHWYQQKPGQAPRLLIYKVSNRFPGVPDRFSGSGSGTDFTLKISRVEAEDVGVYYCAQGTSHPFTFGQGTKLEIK
Response given: 123000
